Answer each item with its documented AC50.
molecular target: Cytochrome P450 3A4 (Homo sapiens, UniProt P08684); settings: Potency;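 further: confirmatory qHTS run detecting inhibitors and substrates of CYP3A4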
Sequence (P08684 whole entry): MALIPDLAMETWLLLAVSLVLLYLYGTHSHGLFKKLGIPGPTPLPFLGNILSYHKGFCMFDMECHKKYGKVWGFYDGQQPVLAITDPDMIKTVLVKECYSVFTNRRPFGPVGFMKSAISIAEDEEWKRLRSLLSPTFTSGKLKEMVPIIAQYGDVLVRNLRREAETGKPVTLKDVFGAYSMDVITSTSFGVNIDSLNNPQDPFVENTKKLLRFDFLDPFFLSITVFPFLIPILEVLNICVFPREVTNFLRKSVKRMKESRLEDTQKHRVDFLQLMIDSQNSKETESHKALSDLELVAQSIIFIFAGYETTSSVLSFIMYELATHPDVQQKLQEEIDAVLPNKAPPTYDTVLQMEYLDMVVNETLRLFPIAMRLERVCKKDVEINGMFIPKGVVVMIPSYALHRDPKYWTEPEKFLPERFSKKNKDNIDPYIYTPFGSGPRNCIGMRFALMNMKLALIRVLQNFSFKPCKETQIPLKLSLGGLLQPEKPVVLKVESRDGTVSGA

Enter measured AC50, system Cytochrome P450 3A4 (Homo sapiens, UniProt P08684), for the compound shown: CC(C)c1ccc2c(c1)CCC1C(C)(C(N)=O)CCCC21C (stereo not given) 20 µM (inconclusive)

Enter measured AC50, system Cytochrome P450 3A4 (Homo sapiens, UniProt P08684), for the compound shown: CC12C=C(/C=C/c3ccccc3)C(C)(C1)C(c1ccccc1)CC2=O (stereo not given) 3.16 µM (inconclusive)

Enter measured AC50, system Cytochrome P450 3A4 (Homo sapiens, UniProt P08684), for the compound shown: "COCCN(CCOC)c1nc(C)nc2c1nc(-c1ccccc1)n2CCN1CCCC1" 20 µM (inconclusive)

Enter measured AC50, system Cytochrome P450 3A4 (Homo sapiens, UniProt P08684), for the compound shown: "CCN(CC)c1ccc2c(C)cc(=O)oc2c1" 20 µM (inconclusive)

Enter measured AC50, system Cytochrome P450 3A4 (Homo sapiens, UniProt P08684), for the compound shown: CC(C)=CCC/C(C)=C/C=C/C1=CC2(C)CC1(C)C(/C=C(\C)CCC=C(C)C)CC2=O (stereo not given) 3.98 µM (inconclusive)
